Data credit: the supplement of paper PMC11908140

B1: library; numbered along this chain (parent)
chain: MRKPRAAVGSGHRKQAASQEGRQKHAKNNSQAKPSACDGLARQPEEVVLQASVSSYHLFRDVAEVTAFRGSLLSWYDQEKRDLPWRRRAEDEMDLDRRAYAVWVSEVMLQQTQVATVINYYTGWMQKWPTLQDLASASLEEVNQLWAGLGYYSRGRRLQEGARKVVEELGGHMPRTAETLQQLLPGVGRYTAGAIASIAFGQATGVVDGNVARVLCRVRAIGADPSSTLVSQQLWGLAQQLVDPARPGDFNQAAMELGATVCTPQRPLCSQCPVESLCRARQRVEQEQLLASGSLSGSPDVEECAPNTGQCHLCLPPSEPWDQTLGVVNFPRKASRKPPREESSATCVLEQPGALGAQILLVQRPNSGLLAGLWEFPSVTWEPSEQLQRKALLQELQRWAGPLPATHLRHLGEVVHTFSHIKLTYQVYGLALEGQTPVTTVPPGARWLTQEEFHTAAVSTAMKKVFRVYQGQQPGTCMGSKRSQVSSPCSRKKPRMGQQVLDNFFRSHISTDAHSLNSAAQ

# Variants of: B1
# Assay Remarks: 8OG:A repair function score (normalized; synonymous = 0, nonsense = -1) (normalized log-likelihood score); higher = more repair activity (WT-like);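 further: cells sorted at 72 h after reporter transfection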
# Conditions Used: with 8OG:A DNA repair reporter (GFP) in HEK-293 MUTYH KO cells
Please note: 1 (yes) applies when 8OG:A repair function score is -0.05 or greater, and 0 (no) applies otherwise.

Variant Annotation	Label Class
H508T	1 (yes)
L289F	1 (yes)
G155M	0 (no)
S487V	1 (yes)
G372E	0 (no)
Q470K	1 (yes)
P244T	0 (no)
S335P	1 (yes)
G209C	1 (yes)
A223T	0 (no)
V107C	0 (no)
P225S	0 (no)
G155Y	0 (no)
S55F	1 (yes)
D94G	0 (no)
C477Y	1 (yes)
L349G	0 (no)
K492L	1 (yes)
L139C	0 (no)
Y151L	0 (no)
D133M	1 (yes)
F68D	0 (no)
Q310H	1 (yes)
Q240P	0 (no)
E350C	1 (yes)
A99W	0 (no)
Q397R	0 (no)
A357F	0 (no)
R156P	0 (no)
R98K	1 (yes)
V53K	1 (yes)
L387I	1 (yes)
S294E	1 (yes)
A101I	1 (yes)
E413Q	0 (no)
V328M	1 (yes)
L109P	0 (no)
R2S	1 (yes)
F68H	0 (no)
A101H	0 (no)
H407Y	0 (no)
R409Y	0 (no)
V458P	0 (no)
V500F	1 (yes)
W374P	0 (no)
